Molecular target: cis pT231-tau (P-tau peptide, pure cis or cis-locked)
Assay: Biacore assay of binding affinity of humanized cis mAb variants

molecule	measurement_units	Kd
HT14: humanized cis-pThr231-tau mAb; heavy chain variable domain SEQ ID NO: 25, light chain variable domain SEQ ID NO: 17 (antibody, V domains shown) VH: QVQLVQSGAELKKPGASVKMSCKASGYTFTSYWIHWVKQRPGQGLEWIGVIDPSDSYTRYNQKFKGRATLTVDTSASTAYMQLSSLTSEDSAVYYCTTWEVDYWGQGTTVTVSS VL: DVVMTQSPLSLPVTLGQPASISCRSSQSLVHSDGNTYLNWYLQKPGQSPQLLIYKVSNRFSGVPDRFSGSGSGTDFTLKISRVEAEDVGVYFCSQSTHVPWTFGGGTKVEIK	nM	30.2
HT5: humanized cis-pThr231-tau mAb; heavy chain variable domain SEQ ID NO: 25, light chain variable domain SEQ ID NO: 18 (antibody, V domains shown) VH: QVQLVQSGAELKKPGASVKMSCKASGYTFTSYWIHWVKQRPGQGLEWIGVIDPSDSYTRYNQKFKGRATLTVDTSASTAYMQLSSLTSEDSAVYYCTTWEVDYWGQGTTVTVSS VL: DVVMTQSPLSLPVTLGQPASISCRSSQSLVHSDGNTYLHWYLQKPGQSPQLLIYKVSNRDSGVPDRFSGSGSGTDFTLKISRVEAEDVGVYFCSQSTHVPWTFGGGTKVEIK	nM	6.91
